IC50 values recorded for Bcl-2-like protein 1 (Homo sapiens, UniProt Q07817)
ASSAY ENDPOINT: IC50

cpd_smiles=Cc1c(Cl)c(C(=O)NCc2ccc(-c3ccc(CC(=O)O)cc3)cc2)nn1-c1ccc(C(=O)NS(=O)(=O)c2ccc3c(c2)CCN3Cc2ccc(Cl)c(Cl)c2)cc1C(=O)N1CCc2ccccc2C1 result="8.07 µM"
cpd_smiles=CCCCN(CCCC)C(=O)c1cn(CCN2CCOCC2)c(-c2ccc(C(=O)NS(=O)(=O)c3ccc4ccccc4c3)cc2C(=O)N2Cc3ccccc3C[C@H]2CO)n1 result="0.06 µM"
